These data points were gathered from paper PMC9667936.

Assay system: 14-3-3γ (Homo sapiens)
Construct: made in house; host or cells: E. coli NiCo21 (DE3)
Sequence (P61981 whole entry): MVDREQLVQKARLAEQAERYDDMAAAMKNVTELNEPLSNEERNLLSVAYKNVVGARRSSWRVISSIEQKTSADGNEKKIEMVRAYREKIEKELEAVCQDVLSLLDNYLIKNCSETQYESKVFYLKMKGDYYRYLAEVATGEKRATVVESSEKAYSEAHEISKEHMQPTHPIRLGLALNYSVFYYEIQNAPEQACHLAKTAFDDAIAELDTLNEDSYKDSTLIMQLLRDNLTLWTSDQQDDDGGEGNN
Measurement notes: Isothermal titration calorimetry (ITC) of 14-3-3 binding to peptide
Cond: Table S5; ITC, 25 °C; replicate 2
Where a SMILES comes first, the peptide text is derived from it. [ ]: non-standard residue; d: D form. ξ: configuration not given here. Phe(4-NO2) = N[C@@H](Cc1ccc([N+](=O)[O-])cc1)C(=O)O; ξAla(4-thiazolyl) = NC(Cc1cscn1)C(=O)O; pS = N[C@@H](COP(=O)(O)O)C(=O)O; β3hS = N[C@@H](CO)CC(=O)O; Nva = CCC[C@H](N)C(=O)O; ξβ3hS = NC(CO)CC(=O)O; βAla = NCCC(=O)O
This listing pairs molecules with measured ΔG.

>  <Molecule>
CCC[C@H](NC(=O)[C@H](N)CCCCN)C(=O)N[C@@H](Cc1ccc([N+](=O)[O-])cc1)C(=O)N[C@@H](C)C(=O)N[C@@H](COP(=O)(O)O)C(=O)N[C@@H](Cc1ccc([N+](=O)[O-])cc1)C(=O)N[C@@H](CO)CC(=O)NCCC(=O)N[C@@H](Cc1ccc([N+](=O)[O-])cc1)C(=O)N[C@@H](CCCCN)C(N)=O [3a] (H-[dK][Nva][Phe(4-NO2)]A[pS][Phe(4-NO2)][β3hS][βAla][Phe(4-NO2)]K-NH2; N-terminus and C-terminus assumed)

>  <Unit info>
kcal/mol

>  <ΔG>
-9.8

$$$$
>  <Molecule>
CCC[C@H](NC(=O)[C@H](N)CCCCN)C(=O)N[C@@H](Cc1ccc([N+](=O)[O-])cc1)C(=O)NC(Cc1cscn1)C(=O)N[C@@H](COP(=O)(O)O)C(=O)N[C@@H](Cc1ccc([N+](=O)[O-])cc1)C(=O)N[C@@H](CO)CC(=O)NCCC(=O)N[C@@H](C)C(=O)N[C@@H](CCCCN)C(N)=O (stereo partly drawn) [5c] (H-[dK][Nva][Phe(4-NO2)][ξAla(4-thiazolyl)][pS][Phe(4-NO2)][β3hS][βAla]AK-NH2; N-terminus and C-terminus assumed)

>  <Unit info>
kcal/mol

>  <ΔG>
-7.3

$$$$
>  <Molecule>
CCC[C@H](NC(=O)[C@H](N)CCCCN)C(=O)N[C@@H](Cc1ccc([N+](=O)[O-])cc1)C(=O)NC(Cc1cscn1)C(=O)N[C@@H](COP(=O)(O)O)C(=O)N[C@@H](Cc1ccc([N+](=O)[O-])cc1)C(=O)N[C@@H](CO)CC(=O)NCCC(=O)N[C@@H](Cc1ccccc1)C(=O)N[C@@H](CCCCN)C(N)=O (stereo partly drawn) [5b] (H-[dK][Nva][Phe(4-NO2)][ξAla(4-thiazolyl)][pS][Phe(4-NO2)][β3hS][βAla]FK-NH2; N-terminus and C-terminus assumed)

>  <Unit info>
kcal/mol

>  <ΔG>
-7.8

$$$$
>  <Molecule>
CCC[C@H](NC(=O)[C@H](N)CCCCN)C(=O)N[C@@H](Cc1ccc([N+](=O)[O-])cc1)C(=O)NC(Cc1cscn1)C(=O)N[C@@H](COP(=O)(O)O)C(=O)N[C@@H](Cc1ccc([N+](=O)[O-])cc1)C(=O)NC(CO)CC(=O)NCCC(=O)N[C@@H](Cc1ccc([N+](=O)[O-])cc1)C(=O)N[C@@H](CCCCN)C(N)=O (stereo partly drawn) [compound 1] (H-[dK][Nva][Phe(4-NO2)][ξAla(4-thiazolyl)][pS][Phe(4-NO2)][ξβ3hS][βAla][Phe(4-NO2)]K-NH2)

>  <Unit info>
kcal/mol

>  <ΔG>
-10.0

$$$$
